// data source = ChEMBL document CHEMBL2177067

Target or system: Replicative DNA helicase (Bacillus anthracis, UniProt A0A6L8Q2B7)
Sequence (A0A6L8Q2B7 whole entry): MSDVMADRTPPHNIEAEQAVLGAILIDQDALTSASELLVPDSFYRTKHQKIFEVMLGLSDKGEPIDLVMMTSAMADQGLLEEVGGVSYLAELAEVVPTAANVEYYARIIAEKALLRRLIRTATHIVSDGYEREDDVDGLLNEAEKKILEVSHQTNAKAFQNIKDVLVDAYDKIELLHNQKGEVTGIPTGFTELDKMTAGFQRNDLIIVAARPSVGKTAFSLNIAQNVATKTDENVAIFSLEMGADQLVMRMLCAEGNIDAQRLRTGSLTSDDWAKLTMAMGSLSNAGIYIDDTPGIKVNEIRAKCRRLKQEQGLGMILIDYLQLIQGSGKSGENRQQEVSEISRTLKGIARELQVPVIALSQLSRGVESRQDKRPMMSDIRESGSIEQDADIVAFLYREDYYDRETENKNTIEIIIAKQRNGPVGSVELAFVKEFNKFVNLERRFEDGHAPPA
Assay: Inhibition of Bacillus anthracis Sterne 34F2 replicative DNA helicase-mediated ATP-dependent dissociation of Hel-5'FAM:Hel-3'BHQ by FRET assay
Set-up: species or system Bacillus anthracis str. Sterne
pIC50: −log10 of the molar value.
Outcome measure: pIC50

1) Cc1c(CCC(=O)O)c(=O)oc2cc(OCc3nccc4ccccc34)ccc12 ... < 4.00
2) C=CCOc1ccc2c(C)c(CCC(=O)O)c(=O)oc2c1C ... < 4.00
3) C#CCOc1ccc2c(C)c(CCC(=O)O)c(=O)oc2c1C ... < 4.00
4) Cc1c(CCC(=O)O)c(=O)oc2cc(OCc3ccc(-c4ccccc4)cc3)ccc12 ... 5.01
5) Cc1c(CCC(=O)O)c(=O)oc2c(C)c(OCc3ccc(-c4ccc(C(F)(F)F)cc4)cc3)ccc12 ... 5.21
6) Cc1c(CCC(=O)O)c(=O)oc2c(C)c(OCc3nccc4ccccc34)ccc12 ... < 4.00

----------
MIC values by entry
System: Bacillus anthracis
Assay: Antibacterial activity against Bacillus anthracis by broth microdilution method
Assay type: functional
Outcome measure: MIC (µM)

1. Cc1c(CCC(=O)O)c(=O)oc2c(C)c(OCc3cccc(-c4ccccc4)c3)ccc12 ... 0.625
2. Cc1c(CCC(=O)O)c(=O)oc2cc(OCc3ccccc3-c3ccccc3)ccc12 ... 5
3. Cc1c(CCCC(=O)O)c(=O)oc2c(C)c(OCc3ccc(-c4ccccc4)cc3)ccc12 ... 1.25
4. CCc1c(OCc2ccc(-c3ccccc3)cc2)ccc2c(C)c(CCC(=O)O)c(=O)oc12 ... 1.25

----------
Target or system: Replicative DNA helicase (Bacillus anthracis, UniProt A0A6L8Q2B7)
Assay: Inhibition of Bacillus anthracis Sterne 34F2 replicative DNA helicase-mediated ATP-dependent dissociation of Hel-5'FAM:Hel-3'BHQ by FRET assay
Set-up: species or system Bacillus anthracis str. Sterne
Outcome measure: IC50 (µM)

1) Cc1c(CCCC(=O)O)c(=O)oc2c(C)c(OCc3ccc(-c4ccccc4)cc3)ccc12 ... 2
2) Cc1c(CCC(=O)O)c(=O)oc2c(C)c(OCc3ccc(-c4ccc(Cl)c(Cl)c4)cc3)ccc12 ... 3
3) Cc1c(CCC(=O)NCCN(C)C)c(=O)oc2c(C)c(OCc3ccc(-c4ccccc4)cc3)ccc12 ... 1.8
4) Cc1c(CCC(=O)O)c(=O)oc2cc(OCc3ccccc3-c3ccccc3)ccc12 ... 19

----------
System: HeLa
Assay: Cytotoxicity against human HeLa cells by MTS assay
Assay type: cell-based
Label T when CC50 is strictly below 20 µM; at or above that, label F.

1) Cc1c(CCC(=O)O)c(=O)oc2c(C)c(OCc3ccc(-c4ccc(Cl)c(Cl)c4)cc3)ccc12 ... T
2) Cc1c(CCC(=O)O)c(=O)oc2c(C)c(OCc3ccc4ccccc4c3)ccc12 ... F
3) Cc1c(CC(=O)O)c(=O)oc2c(C)c(OCc3ccc(-c4ccccc4)cc3)ccc12 ... F
4) Cc1c(CCC(=O)O)c(=O)oc2c(C)c(OCc3cccc(-c4ccccc4)c3)ccc12 ... T
5) CNC(=O)CCc1c(C)c2ccc(OCc3ccc(-c4ccc(Cl)cc4)cc3)c(C)c2oc1=O ... F
6) Cc1c(CCC(=O)O)c(=O)oc2cc(OCc3ccccc3-c3ccccc3)ccc12 ... T
7) CCc1c(OCc2ccc(-c3ccccc3)cc2)ccc2c(C)c(CCC(=O)O)c(=O)oc12 ... F
8) Cc1c(CCC(=O)O)c(=O)oc2c(C)c(OCc3c4ccccc4cc4ccccc34)ccc12 ... T
9) Cc1c(CCC(=O)O)c(=O)oc2c(C)c(OCc3ccc(-c4ccccc4)cc3)ccc12 ... F
10) Cc1c(CCC(=O)O)c(=O)oc2cc(OCc3ccc(-c4ccccc4)cc3)ccc12 ... F
11) Cc1c(CCC(=O)O)c(=O)oc2c(C)c(OCc3ccc(-c4ccc(F)cc4)cc3)ccc12 ... T
12) Cc1c(CCC(=O)NCCN(C)C)c(=O)oc2c(C)c(OCc3ccc(-c4ccccc4)cc3)ccc12 ... T
13) Cc1c(CCC(=O)O)c(=O)oc2c(C)c(OCc3ccccc3-c3ccccc3)ccc12 ... T
14) CCc1c(OCc2ccc(-c3ccccc3)cc2)ccc2c(C)c(CCCC(=O)O)c(=O)oc12 ... T
15) Cc1c(CCC(=O)O)c(=O)oc2cc(OCc3cccc(-c4ccccc4)c3)ccc12 ... T
16) Cc1c(OCc2ccc(-c3ccccc3)cc2)ccc2cc(CCC(=O)O)c(=O)oc12 ... F
17) Cc1c(CCCC(=O)O)c(=O)oc2c(C)c(OCc3ccc(-c4ccccc4)cc3)ccc12 ... F
18) Cc1c(CCC(=O)O)c(=O)oc2c(C)c(OCc3ccc(-c4ccc(Cl)cc4)cc3)ccc12 ... F

----------
Listed next: entries and their corresponding MIC.
Test system: Bacillus anthracis
Assay: Antibacterial activity against Bacillus anthracis by broth microdilution method
Type: functional
Outcome measure: MIC (µM)

1. Cc1c(CCC(=O)O)c(=O)oc2cc(OCc3ccc(-c4ccccc4)cc3)ccc12 ... 2.5
2. Cc1c(CCC(=O)O)c(=O)oc2c(C)c(OCc3ccc(-c4ccccc4)cc3)ccc12 ... 1.25
3. Cc1c(CCC(=O)O)c(=O)oc2c(C)c(OCc3ccc(-c4ccc(Cl)cc4)cc3)ccc12 ... 0.625
4. Cc1c(CCC(=O)O)c(=O)oc2c(C)c(OCc3ccc(-c4ccccc4C#N)cc3)ccc12 ... 1.25

----------
Target or system: Replicative DNA helicase (Bacillus anthracis, UniProt A0A6L8Q2B7)
Sequence (A0A6L8Q2B7 whole entry): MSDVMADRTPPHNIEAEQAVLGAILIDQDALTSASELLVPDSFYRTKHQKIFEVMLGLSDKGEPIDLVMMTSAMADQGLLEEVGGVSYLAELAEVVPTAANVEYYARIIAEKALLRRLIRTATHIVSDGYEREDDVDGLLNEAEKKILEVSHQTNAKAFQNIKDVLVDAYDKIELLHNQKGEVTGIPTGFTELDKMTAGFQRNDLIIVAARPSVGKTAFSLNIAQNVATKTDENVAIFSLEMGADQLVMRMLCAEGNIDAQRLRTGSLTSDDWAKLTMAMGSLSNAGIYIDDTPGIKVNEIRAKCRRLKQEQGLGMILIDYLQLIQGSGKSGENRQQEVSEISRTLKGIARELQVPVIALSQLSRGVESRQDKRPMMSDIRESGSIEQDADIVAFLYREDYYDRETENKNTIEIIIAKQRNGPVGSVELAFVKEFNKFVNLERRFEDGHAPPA
Let's look at some compounds and their measured IC50.
Outcome measure: IC50 (µM)

1. Cc1c(CCC(=O)O)c(=O)oc2c(C)c(OCc3ccc4ccccc4c3)ccc12 ... 9
2. Cc1c(CCC(=O)O)c(=O)oc2c(C)c(OCc3ccc(-c4ccc(F)cc4F)cc3)ccc12 ... 9
3. Cc1c(CC(=O)O)c(=O)oc2c(C)c(OCc3ccc(-c4ccccc4)cc3)ccc12 ... 9
4. CCc1c(OCc2ccc(-c3ccccc3)cc2)ccc2c(C)c(CCCC(=O)O)c(=O)oc12 ... 5
5. Cc1c(CCC(=O)O)c(=O)oc2c(C)c(OCc3ccc(-c4ccccc4)cc3)ccc12 ... 3
6. Cc1c(CCC(=O)O)c(=O)oc2c(C)c(OCc3ccccc3-c3ccccc3)ccc12 ... 10.2
